Measured half-life values are reported for all entries that follow.
# Assay Remarks: Surrogate Activity-Based Plasma Stability Assay
# Assay type: in vitro ADME
# Measurement Context: rat, Surrogate activity-based Plasma stability t½
Where a SMILES comes first, the peptide text is derived from it. [ ]: non-standard residue; d: D form. pGlu = O=C1CC[C@@H](C(=O)O)N1; dNle = CCCC[C@@H](N)C(=O)O; Nle = CCCC[C@H](N)C(=O)O; Aib = CC(C)(N)C(=O)O

[
  {
    "Compound": "CCCC[C@@H](NC(=O)[C@@H]1CCCN1C(=O)CNC(=O)[C@H](CCCCN)NC(=O)[C@H](Cc1c[nH]cn1)NC(=O)[C@H](NC(=O)[C@H](CC(C)C)NC(=O)[C@H](CCCNC(=N)N)NC(=O)[C@@H]1CCCN1C(=O)[C@H](CCCNC(=N)N)NC(=O)[C@@H]1CCC(=O)N1)C(C)C)C(=O)N[C@H](C)C(=O)N[C@H](Cc1ccccc1)C(=O)O [Example 61, pE-R-P-R-L-v-H-K-G-P-nle-a-f-OH] ([pGlu]RPRL[dV]HKGP[dNle][dA][dF]-OH)",
    "half-life": "> 16.7 h"
  },
  {
    "Compound": "CCCC[C@@H](NC(=O)[C@@H]1CCCN1C(=O)CNC(=O)[C@H](CCCCN)NC(=O)[C@H](Cc1c[nH]cn1)NC(=O)[C@@H](C)NC(=O)[C@H](CC(C)C)NC(=O)[C@H](CCCNC(=N)N)NC(=O)[C@@H]1CCCN1C(=O)[C@H](CCCNC(=N)N)NC(=O)[C@@H]1CCC(=O)N1)C(=O)N[C@H](C)C(=O)N[C@H](Cc1ccc(O)cc1)C(=O)O [Example 21, pE-R-P-R-L-a-H-K-G-P-nle-a-y-OH] ([pGlu]RPRL[dA]HKGP[dNle][dA][dY]-OH)",
    "half-life": "> 16.7 h"
  },
  {
    "Compound": "CCCC[C@H](NC(=O)[C@@H]1CCCN1C(=O)CNC(=O)[C@H](CCCCN)NC(=O)C(C)(C)NC(=O)[C@H](CO)NC(=O)[C@H](CC(C)C)NC(=O)[C@H](CCCNC(=N)N)NC(=O)[C@@H]1CCCN1C(=O)[C@H](CCCNC(=N)N)NC(=O)[C@@H]1CCC(=O)N1)C(=O)N[C@H](C)C(=O)N[C@H](Cc1ccccc1)C(=O)O [Example 38, pE-R-P-R-L-S-Aib-K-G-P-Nle-a-f-OH] ([pGlu]RPRLS[Aib]KGP[Nle][dA][dF]-OH)",
    "half-life": "> 16.7 h"
  }
]

Let's switch to this compound now.
Req: Please report half-life for the following compound: CCCC[C@@H](NC(=O)[C@@H]1CCCN1C(=O)CNC(=O)[C@H](CCCCN)NC(=O)[C@H](Cc1c[nH]cn1)NC(=O)[C@@H](C)NC(=O)[C@H](CC(C)C)NC(=O)[C@H](CCCNC(=N)N)NC(=O)[C@@H]1CCCN1C(=O)[C@H](CCCNC(=N)N)NC(=O)[C@@H]1CCC(=O)N1)C(=O)N[C@H](C)C(=O)NCCc1ccccc1 [Example 36, pE-R-P-R-L-a-H-K-G-P-nle-a-NH(Phenethyl)]
Resp: 2.02 h

---

# Tested On: hAPJ (Homo sapiens, UniProt P35414)
# Sequence (P35414 1-380): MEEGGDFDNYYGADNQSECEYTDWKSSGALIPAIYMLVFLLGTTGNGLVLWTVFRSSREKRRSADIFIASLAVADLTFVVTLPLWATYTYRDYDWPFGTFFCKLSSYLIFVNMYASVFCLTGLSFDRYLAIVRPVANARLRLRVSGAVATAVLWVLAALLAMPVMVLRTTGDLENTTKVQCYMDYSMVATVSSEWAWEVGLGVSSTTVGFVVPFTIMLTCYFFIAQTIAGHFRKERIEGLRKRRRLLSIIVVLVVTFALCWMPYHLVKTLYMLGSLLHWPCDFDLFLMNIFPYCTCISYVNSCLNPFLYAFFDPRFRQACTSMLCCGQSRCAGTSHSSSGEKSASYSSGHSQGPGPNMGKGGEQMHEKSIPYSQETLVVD
# Assay Remarks: hAPJ Calcium Flux Assay
# Type: cell-based
# Measurement Context: Chem-5 APJ stable cells, FLIPR calcium flux stimulation; read-out: hAPJ Ca^2+ Flux EC50
Where a SMILES comes first, the peptide text is derived from it. [ ]: non-standard residue; d: D form. pGlu = O=C1CC[C@@H](C(=O)O)N1; dNle = CCCC[C@@H](N)C(=O)O
Value Kind: EC50 (nM)
Just the number please, in nM, no unit attached.

Req: Please report EC50 for the following compound: CCCC[C@@H](NC(=O)[C@@H]1CCCN1C(=O)CNC(=O)[C@H](CCCCN)NC(=O)[C@H](Cc1c[nH]cn1)NC(=O)[C@@H](C)NC(=O)[C@H](CC(C)C)NC(=O)[C@H](CCCNC(=N)N)NC(=O)[C@@H]1CCCN1C(=O)[C@H](CCCNC(=N)N)NC(=O)[C@@H]1CCC(=O)N1)C(=O)N1CCC[C@@H]1C(=O)N[C@H](Cc1ccccc1)C(=O)O [Example 13, pE-R-P-R-L-a-H-K-G-P-nle-p-f-OH] ([pGlu]RPRL[dA]HKGP[dNle][dP][dF]-OH)
Resp: 1.1

---

# Assay Remarks: Surrogate Activity-Based Plasma Stability Assay
# Format: in vitro ADME
# Measurement Context: rat, Surrogate Activity based Plasma stability t½
Value Kind: half-life (h)
Just the number please, in h, no unit attached.

Req: Please report half-life for the following compound: `CCCC[C@H](NC(=O)[C@@H]1CCCN1C(=O)CNC(=O)[C@H](CCCCN)NC(=O)[C@H](Cc1c[nH]cn1)NC(=O)[C@@H](C)NC(=O)[C@H](CC(C)C)NC(=O)[C@H](CCCNC(=N)N)NC(=O)[C@@H]1CCCN1C(=O)[C@H](CCCNC(=N)N)NC(=O)[C@@H]1CCC(=O)N1)C(=O)N[C@H](C)C(=O)N[C@H](Cc1ccccc1)C(=O)O`
Resp: 2.13

---

Measured half-life values are reported for all entries that follow.
# Assay Remarks: Surrogate Activity-Based Plasma Stability Assay
# Type: in vitro ADME
# Measurement Context: rat, Surrogate activity-based Plasma stability t½
Where a SMILES comes first, the peptide text is derived from it. [ ]: non-standard residue; d: D form. pGlu = O=C1CC[C@@H](C(=O)O)N1; dNle = CCCC[C@@H](N)C(=O)O

[
  {
    "Compound": "CCCC[C@@H](NC(=O)[C@@H]1CCCN1C(=O)CNC(=O)[C@H](CCCCN)NC(=O)[C@H](Cc1c[nH]cn1)NC(=O)[C@@H](C)NC(=O)[C@H](CC(C)C)NC(=O)[C@H](CCCNC(=N)N)NC(=O)[C@@H]1CCCN1C(=O)[C@@H](CCCNC(=N)N)NC(=O)[C@@H]1CCC(=O)N1)C(=O)N[C@H](C)C(=O)N[C@H](Cc1ccccc1)C(=O)O [Example 3, pE-r-P-R-L-a-H-K-G-P-nle-a-f-OH]",
    "Meas Value": "> 16.7 h"
  },
  {
    "Compound": "CCCC[C@@H](NC(=O)[C@@H]1CCCN1C(=O)CNC(=O)[C@H](CCCCN)NC(=O)[C@H](Cc1c[nH]cn1)NC(=O)[C@@H](C)NC(=O)[C@H](CC(C)C)NC(=O)[C@H](CCCNC(=N)N)NC(=O)[C@@H]1C[C@@H](c2ccccc2)CN1C(=O)[C@H](CCCNC(=N)N)NC(=O)[C@@H]1CCC(=O)N1)C(=O)N[C@H](C)C(=O)N[C@H](Cc1ccccc1)C(=O)O [Example 9]",
    "Meas Value": "> 16.7 h"
  },
  {
    "Compound": "CCCC[C@@H](NC(=O)[C@@H]1CCCN1C(=O)CNC(=O)[C@H](CCCCN)NC(=O)[C@H](Cc1c[nH]cn1)NC(=O)[C@@H](C)NC(=O)[C@H](CC(C)C)NC(=O)[C@H](CCCNC(=N)N)NC(=O)[C@@H]1CCCN1C(=O)[C@H](CCCNC(=N)N)NC(=O)[C@@H]1CCC(=O)N1)C(=O)NCCc1ccccc1 [Example 32, pE-R-P-R-L-a-H-K-G-P-nle-NH(Phenethyl)]",
    "Meas Value": "0.795 h"
  },
  {
    "Compound": "CCCC[C@@H](NC(=O)[C@@H]1CCCN1C(=O)CNC(=O)[C@H](CCCCN)NC(=O)[C@@H](C)NC(=O)[C@H](CO)NC(=O)[C@H](CC(C)C)NC(=O)[C@H](CCCNC(=N)N)NC(=O)[C@@H]1CCCN1C(=O)[C@H](CCCNC(=N)N)NC(=O)[C@@H]1CCC(=O)N1)C(=O)N[C@H](C)C(=O)N[C@H](Cc1ccccc1)C(=O)O [Example 51, pE-R-P-R-L-S-a-K-G-P-nle-a-f-OH] ([pGlu]RPRLS[dA]KGP[dNle][dA][dF]-OH)",
    "Meas Value": "> 16.7 h"
  },
  {
    "Compound": "CCCC[C@@H](NC(=O)[C@@H]1CCCN1C(=O)CNC(=O)[C@H](CCCCN)NC(=O)[C@H](Cc1c[nH]cn1)NC(=O)[C@@H](C)NC(=O)[C@H](CC(C)C)NC(=O)[C@H](CCCNC(=N)N)NC(=O)[C@@H]1CCCN1C(=O)[C@H](CCCNC(=N)N)NC(=O)[C@@H]1CCC(=O)N1)C(=O)N[C@H](CC)C(=O)N[C@H](Cc1ccccc1)C(=O)O [Example 45, pE-R-P-R-L-a-H-K-G-P-nle-abu-f-OH]",
    "Meas Value": "> 16.7 h"
  },
  {
    "Compound": "CCCC[C@@H](NC(=O)[C@@H]1CCCN1C(=O)CNC(=O)[C@H](CCCCN)NC(=O)[C@H](Cc1c[nH]cn1)NC(=O)[C@@H](C)NC(=O)[C@H](CC(C)C)NC(=O)[C@H](CCCNC(=N)N)NC(=O)[C@@H]1CCCN1C(=O)[C@H](CCCNC(=N)N)NC(=O)[C@@H]1CCC(=O)N1)C(=O)N[C@H](CCC(=O)O)C(=O)N[C@H](Cc1ccccc1)C(=O)O [Example 19, pE-R-P-R-L-a-H-K-G-P-nle-e-f-OH] ([pGlu]RPRL[dA]HKGP[dNle][dE][dF]-OH)",
    "Meas Value": "> 16.7 h"
  },
  {
    "Compound": "CCCC[C@@H](NC(=O)[C@@H]1CCCN1C(=O)CNC(=O)[C@H](CCCCN)NC(=O)[C@H](Cc1c[nH]cn1)NC(=O)[C@@H](C)NC(=O)[C@H](CC(C)C)NC(=O)[C@H](CCCNC(=N)N)NC(=O)[C@@H]1CCCN1C(=O)[C@H](CCCNC(=N)N)NC(=O)[C@@H]1CCC(=O)N1)C(=O)N[C@H](C)C(=O)N[C@H](Cc1ccccc1)C(N)=O [Example 33, pE-R-P-R-L-a-H-K-G-P-nle-a-f-NH2]",
    "Meas Value": "> 16.7 h"
  },
  {
    "Compound": "CCCC[C@@H](NC(=O)[C@@H]1CCCN1C(=O)CNC(=O)[C@H](CCCCN)NC(=O)[C@H](Cc1c[nH]cn1)NC(=O)[C@@H](C)NC(=O)[C@H](CC(C)C)NC(=O)[C@H](CCCNC(=N)N)NC(=O)[C@@H]1CCCN1C(=O)[C@H](CCCNC(=N)N)NC(=O)[C@@H]1CCC(=O)N1)C(=O)N[C@H](Cc1ccccc1)C(=O)O [Example 6, pE-R-P-R-L-a-H-K-G-P-nle-f-OH]",
    "Meas Value": "> 16.7 h"
  }
]

Req: Please report half-life for the following compound: CCCC[C@@H](NC(=O)[C@@H]1CCCN1C(=O)CNC(=O)[C@H](CCCCN)NC(=O)[C@H](Cc1c[nH]cn1)NC(=O)[C@@H](C)NC(=O)[C@H](Cc1ccc(O)cc1)NC(=O)[C@H](CCCNC(=N)N)NC(=O)[C@@H]1CCCN1C(=O)[C@H](CCCNC(=N)N)NC(=O)[C@@H]1CCC(=O)N1)C(=O)N[C@H](C)C(=O)N[C@H](Cc1ccccc1)C(=O)O [Example 28, pE-R-P-R-Y-a-H-K-G-P-nle-a-f-OH] ([pGlu]RPRY[dA]HKGP[dNle][dA][dF]-OH)
Resp: > 16.7 h

Req: Please report half-life for the following compound: CCCC[C@@H](NC(=O)[C@@H]1CCCN1C(=O)CNC(=O)[C@H](CCCCN)NC(=O)[C@H](Cc1c[nH]cn1)NC(=O)[C@@H](C)NC(=O)[C@H](CC(C)C)NC(=O)[C@H](CCCNC(=N)N)NC(=O)[C@@H]1CCCN1C(=O)[C@H](CCCNC(=N)N)NC(=O)[C@@H]1CCC(=O)N1)C(=O)N1CCC(Oc2ccccc2)CC1 [Example 43]
Resp: 2.97 h

Every entry's value here was drawn from patent US8921307B2.
